# credit: paper PMC4324418

assay: Amphetamine-induced hyperlocomotion in wild-type mice; type: in vivo, mouse; details: mouse, brain, ip, 3 mg/kg, mean Cbrain,u, WT mice, 3 mg/kg IP; 2.5 h; in vitro mouse fubrain 0.014
measured-quantity: concentration at 2.5 h (nM)
Only the number, expressed in nM, is required.

State the recorded concentration at 2.5 h for this entry: Cc1nnc2sc(C(=O)NCc3ccc(S(=O)(=O)C(F)(F)F)cc3)c(N)c2c1C [VU0467154]
2.2

---

experiment: Amphetamine-induced hyperlocomotion in wild-type mice; assay type: in vivo, mouse; details: mouse, brain, ip, 3 mg/kg, mean Cbrain, WT mice, 3 mg/kg IP; at 2.5 h postadministration
measured-quantity: concentration at 2.5 h (nM)
Unit nM implied. Number only.

Request the reported concentration at 2.5 h associated with Cc1nnc2sc(C(=O)NCc3ccc(S(=O)(=O)C(F)(F)F)cc3)c(N)c2c1C [VU0467154]
157

---

experiment: Pharmacokinetic and brain distribution studies in mice; settings: male, C57BL/6, mouse, in vivo, po, 10 mg/kg
measured-quantity: Cmax
Form entry: enter the amount, then its unit.

Need Cmax, item `Cc1nnc2sc(C(=O)NCc3ccc(S(=O)(=O)C(F)(F)F)cc3)c(N)c2c1C`
7.6 µM

---

assay: Amphetamine-induced hyperlocomotion in rats; format: in vivo; conditions: Sprague-Dawley, rat, brain, po, 10 mg/kg, mean Cbrain,u, PO 10 mg/kg, 1.5 h, in vitro rat fubrain 0.067
measured-quantity: concentration at 1.5 h (nM)
Output spec: scalar in nM, unitless text.

Which measured concentration at 1.5 h value corresponds to `Cc1nnc2sc(C(=O)NCc3ccc(S(=O)(=O)C(F)(F)F)cc3)c(N)c2c1C` ?
74

---

experiment: Amphetamine-induced hyperlocomotion in wild-type mice; format: in vivo, mouse; conditions: mouse, brain, ip, 0.3 mg/kg, mean Cbrain,u, WT mice, 0.3 mg/kg IP; 2.5 h; in vitro mouse fubrain 0.014
measured-quantity: concentration at 2.5 h (nM)
Your answer should be a plain number; it is taken to be in nM.

Given `Cc1nnc2sc(C(=O)NCc3ccc(S(=O)(=O)C(F)(F)F)cc3)c(N)c2c1C` , state its recorded concentration at 2.5 h.
0.3

---

biological target: rat M4 receptor (Rattus norvegicus, UniProt P08485); details: potentiation of an EC20 concentration of ACh; CHO cells
Sequence (P08485 whole entry): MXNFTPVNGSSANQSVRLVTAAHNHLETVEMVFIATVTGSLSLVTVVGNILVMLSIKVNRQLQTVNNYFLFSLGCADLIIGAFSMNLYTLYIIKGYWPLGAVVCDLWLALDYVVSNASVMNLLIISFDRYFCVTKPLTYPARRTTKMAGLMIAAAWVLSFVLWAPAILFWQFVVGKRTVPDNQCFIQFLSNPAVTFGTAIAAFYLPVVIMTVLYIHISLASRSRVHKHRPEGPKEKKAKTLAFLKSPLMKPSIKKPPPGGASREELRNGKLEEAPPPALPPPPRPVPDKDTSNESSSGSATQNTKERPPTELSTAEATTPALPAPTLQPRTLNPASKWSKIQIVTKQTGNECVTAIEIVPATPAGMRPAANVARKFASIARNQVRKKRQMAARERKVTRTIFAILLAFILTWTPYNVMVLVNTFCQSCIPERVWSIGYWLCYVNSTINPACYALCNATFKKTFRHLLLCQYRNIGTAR
measured-quantity: pEC50
Reminder that pEC50 means the negative base-10 logarithm of the concentration expressed in mol/L.

Form entry - test system: rat M4 receptor (Rattus norvegicus, UniProt P08485); read-out: pEC50; molecule: COc1nc2sc(C(=O)NC3CC3)c(N)c2c(C)c1Cl [LY2033298]
6.19

---

biological target: human adenosine transporter (Homo sapiens); assay: [3H]adenosine uptake functional assay
Sequence (Q99808 whole entry): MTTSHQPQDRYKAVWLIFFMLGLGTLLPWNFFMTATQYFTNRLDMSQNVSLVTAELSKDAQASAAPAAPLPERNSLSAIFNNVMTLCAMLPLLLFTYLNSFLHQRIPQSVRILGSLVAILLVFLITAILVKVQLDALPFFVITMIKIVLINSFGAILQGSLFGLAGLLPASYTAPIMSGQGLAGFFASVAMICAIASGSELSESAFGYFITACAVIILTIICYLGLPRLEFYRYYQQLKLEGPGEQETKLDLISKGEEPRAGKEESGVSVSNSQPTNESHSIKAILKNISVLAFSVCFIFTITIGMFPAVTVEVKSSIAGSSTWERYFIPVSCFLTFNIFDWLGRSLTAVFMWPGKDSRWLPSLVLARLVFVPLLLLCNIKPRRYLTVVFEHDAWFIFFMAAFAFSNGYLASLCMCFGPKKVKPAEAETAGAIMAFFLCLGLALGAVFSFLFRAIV
measured-quantity: IC50 (nM)
The figure you give is taken to be in nM; do not add the unit.

Item `Cc1nnc2sc(C(=O)NCc3ccc(S(=O)(=O)C(F)(F)F)cc3)c(N)c2c1C` has what recorded IC50?
240

---

assay: Amphetamine-induced hyperlocomotion in M4 KO mice; format: in vivo, mouse; conditions: mouse, brain, ip, 10 mg/kg, mean Cbrain, 10 mg/kg IP, at 2.5 h postadministration
measured-quantity: concentration at 2.5 h
Give your result as the value with the unit written after it.

Query (compound): `Cc1nnc2sc(C(=O)NCc3ccc(S(=O)(=O)C(F)(F)F)cc3)c(N)c2c1C` ; field requested: concentration at 2.5 h
217 nM

---

test: Pharmacokinetic and brain distribution studies in mice; conditions: male, C57BL/6, mouse, in vivo, ip, 3 mg/kg
measured-quantity: Cmax (nM)
Value expressed in nM; do not type the unit.

Would you mind telling me what Cmax value was observed for Cc1nnc2sc(C(=O)NCc3ccc(S(=O)(=O)C(F)(F)F)cc3)c(N)c2c1C [VU0467154] ?
2000

---

assay: Pharmacokinetic and brain distribution studies in mice; settings: male, C57BL/6, mouse, in vivo, po, 10 mg/kg
measured-quantity: Tmax (h)
Report the figure in h without appending any unit label.

So what's the measured Tmax for this one? `Cc1nnc2sc(C(=O)NCc3ccc(S(=O)(=O)C(F)(F)F)cc3)c(N)c2c1C`
1

---

assay: in vivo; details: male, Sprague-Dawley, rat, po, 3 mg/kg, Tmax,p
measured-quantity: Tmax

Could you tell me which Tmax is on file for `Cc1nnc2sc(C(=O)NCc3ccc(S(=O)(=O)C(F)(F)F)cc3)c(N)c2c1C` ?
~3 h

---

test: Amphetamine-induced hyperlocomotion in wild-type mice; type: in vivo, mouse; settings: mouse, brain, ip, 0.3 mg/kg, mean Cbrain, WT mice, 0.3 mg/kg IP; at 2.5 h postadministration
measured-quantity: concentration at 2.5 h (nM)
Response body: numeric value in nM, unit text excluded.

Using the record for Cc1nnc2sc(C(=O)NCc3ccc(S(=O)(=O)C(F)(F)F)cc3)c(N)c2c1C [VU0467154] , report its concentration at 2.5 h.
24

---

assay: in vitro; assay type: in vitro ADME; details: rat, plasma
measured-quantity: fraction unbound

Please report the recorded fraction unbound for `Cc1nnc2sc(C(=O)NCc3ccc(S(=O)(=O)C(F)(F)F)cc3)c(N)c2c1C` .
0.031

---

experiment: Amphetamine-induced hyperlocomotion in rats; type: in vivo; conditions: Sprague-Dawley, rat, brain, po, 3 mg/kg, mean Cbrain, PO 3 mg/kg, at 1.5 h postadministration
measured-quantity: concentration at 1.5 h (nM)
Note: unit nM is implicit; provide only the numeric part.

Which measured concentration at 1.5 h value corresponds to `Cc1nnc2sc(C(=O)NCc3ccc(S(=O)(=O)C(F)(F)F)cc3)c(N)c2c1C` ?
750

---

experiment: Amphetamine-induced hyperlocomotion in rats; format: in vivo; conditions: Sprague-Dawley, rat, brain, po, 10 mg/kg, mean Cbrain, PO 10 mg/kg, at 1.5 h postadministration
measured-quantity: concentration at 1.5 h (nM)
Give the value, in units of nM, as a plain number.

Dear colleague, I am looking for the recorded concentration at 1.5 h of the following molecule: `Cc1nnc2sc(C(=O)NCc3ccc(S(=O)(=O)C(F)(F)F)cc3)c(N)c2c1C`
1100

---

assay: Pharmacokinetic and brain distribution studies in mice; conditions: male, C57BL/6, mouse, in vivo, po, 30 mg/kg
measured-quantity: Cmax (µM)
Give the number; µM is assumed, so skip it.

Looking for the measured Cmax of `Cc1nnc2sc(C(=O)NCc3ccc(S(=O)(=O)C(F)(F)F)cc3)c(N)c2c1C` , can you help?
11

---

assay: Pharmacokinetic and brain distribution studies in mice; settings: male, C57BL/6, mouse, in vivo, ip, 3 mg/kg
measured-quantity: Tmax (h)
Number in h, nothing else.

Need Tmax of `Cc1nnc2sc(C(=O)NCc3ccc(S(=O)(=O)C(F)(F)F)cc3)c(N)c2c1C` , thanks.
1

---

test: Mouse plasma protein binding; type: in vitro ADME
measured-quantity: fraction unbound
No unit in the answer, only the number.

State the recorded fraction unbound for this entry: Cc1nnc2sc(C(=O)NCc3ccc(S(=O)(=O)C(F)(F)F)cc3)c(N)c2c1C [VU0467154]
0.022

---

assay: Pharmacokinetic and brain distribution studies in mice; settings: male, C57BL/6, mouse, in vivo, ip, 10 mg/kg
measured-quantity: Cmax (µM)
// return numeric value only (unit: µM, not printed)

Quick one: Cmax for `Cc1nnc2sc(C(=O)NCc3ccc(S(=O)(=O)C(F)(F)F)cc3)c(N)c2c1C` ?
5.6

---

test: Amphetamine-induced hyperlocomotion in M4 KO mice; type: in vivo, mouse; conditions: mouse, brain, ip, 10 mg/kg, mean Cbrain,u, 10 mg/kg IP, 2.5 h, in vitro mouse fubrain 0.014
measured-quantity: concentration at 2.5 h (nM)
Express your answer in nM, writing the number without its unit.

Any idea what concentration at 2.5 h was measured for `Cc1nnc2sc(C(=O)NCc3ccc(S(=O)(=O)C(F)(F)F)cc3)c(N)c2c1C` ?
3

---

test: Pharmacokinetic and brain distribution studies in mice; settings: male, C57BL/6, mouse, in vivo, po, 30 mg/kg
measured-quantity: AUC(0-t) (µM·h)
Answer format: numeric, µM·h implied, no suffix.

Value lookup for AUC(0-t); key = Cc1nnc2sc(C(=O)NCc3ccc(S(=O)(=O)C(F)(F)F)cc3)c(N)c2c1C [VU0467154]
66

---

assay: Pharmacokinetic and brain distribution studies in mice; conditions: male, C57BL/6, mouse, in vivo, ip, 30 mg/kg
measured-quantity: Tmax (min)
Provide the reading as a plain figure in min.

Reported Tmax, compound `Cc1nnc2sc(C(=O)NCc3ccc(S(=O)(=O)C(F)(F)F)cc3)c(N)c2c1C` : ____
30

---

assay: Pharmacokinetic and brain distribution studies in mice; details: male, C57BL/6, mouse, in vivo, ip, 3 mg/kg
measured-quantity: AUC(0-t)
Please answer using the number first and the unit second.

Data request, read-out AUC(0-t), for `Cc1nnc2sc(C(=O)NCc3ccc(S(=O)(=O)C(F)(F)F)cc3)c(N)c2c1C`
9.2 µM·h
